B1: wild-type human sodium/iodide symporter (hNIS) [human] / μ1B (AP1M2) expressed from cDNA in COS-7 cells [not stated] (parent complex)
chain 1: MEAVETGERPTFGAWDYGVFALMLLVSTGIGLWVGLARGGQRSAEDFFTGGRRLAALPVGLSLSASFMSAVQVLGVPSEAYRYGLKFLWMCLGQLLNSVLTALLFMPVFYRLGLTSTYEYLEMRFSRAVRLCGTLQYIVATMLYTGIVIYAPALILNQVTGLDIWASLLSTGIICTFYTAVGGMKAVVWTDVFQVVVMLSGFWVVLARGVMLVGGPRQVLTLAQNHSRINLMDFNPDPRSRYTFWTFVVGGTLVWLSMYGVNQAQVQRYVACRTEKQAKLALLINQVGLFLIVSSAACCGIVMFVFYTDCDPLLLGRISAPDQYMPLLVLDIFEDLPGVPGLFLACAYSGTLSTASTSINAMAAVTVEDLIKPRLRSLAPRKLVIISKGLSLIYGSACLTVAALSSLLGGGVLQGSFTVMGVISGPLLGAFILGMFLPACNTPGVLAGLGAGLALSLWVALGATLYPPSEQTMRVLPSSAARCVALSVNASGLLDPALLPANDSSRAPSSGMDASRPALADSFYAISYLYYGALGTLTTVLCGALISCLTGPTKRSTLAPGLLWWDLARQTASVAPKEEVAILDDNLVKGPEELPTGNKKPPGFLPTNEDRLFFLGQKELEGAGSWTPCVGHDGGRDQQETNL
chain 2: MSASAVFILDVKGKPLISRNYKGDVAMSKIEHFMPLLVQREEEGALAPLLSHGQVHFLWIKHSNLYLVATTSKNANASLVYSFLYKTIEVFCEYFKELEEESIRDNFVIVYELLDELMDFGFPQTTDSKILQEYITQQSNKLETGKSRVPPTVTNAVSWRSEGIKYKKNEVFIDVIESVNLLVNANGSVLLSEIVGTIKLKVFLSGMPELRLGLNDRVLFELTGRSKNKSVELEDVKFHQCVRLSRFDNDRTISFIPPDGDFELMSYRLSTQVKPLIWIESVIEKFSHSRVEIMVKAKGQFKKQSVANGVEISVPVPSDADSPRFKTSVGSAKYVPERNVVIWSIKSFPGGKEYLMRAHFGLPSVEKEEVEGRPPIGVKFEIPYFTVSGIQVRYMKIIEKSGYQALPWVRYITQSGDYQLRTS

- Variants of: B1
- ASSAY EXPLANATION: co-immunoprecipitation with Western blot quantification; COS-7 cells cotransfected with hNIS and μ1B; IP α-μ1B, WB α-hNIS; parent: 100; read off a plot
VALUE TYPE: percent of parent

chain 1 L594A
~84 % Relative to hNIS WT
chain 1 Y118A
~61 % Relative to hNIS WT

Task: Determine its reported percent of parent: chain 1 L583A
Output: ~5 % Relative to hNIS WT

Task: Determine its reported percent of parent: chain 1 L121A
Output: ~60 % Relative to hNIS WT

Task: Determine its reported percent of parent: chain 1 L562A, chain 1 L563A
Output: ~32 % Relative to hNIS WT

Task: Determine its reported percent of parent: chain 1 Y120A
Output: ~83 % Relative to hNIS WT

Task: Determine its reported percent of parent: chain 1 L587A
Output: ~100 % Relative to hNIS WT
